molecular target: Heat shock factor protein 1 (Homo sapiens); experiment: ATG_HSE_CIS: Attagene CIS-FACTORIAL HepG2 Assay for human Heat Shock Transcription Factor 1 (HSE) (AID 2282953); details: HepG2 HSE cis-reporter, Attagene RNA transcription; actives raise or lower the signal
Active and inactive are the calls of the source. How the source made its calls: active means hit-call score of the fitted dose curve at least 0.9, where 1 is the maximum; inactive means score below 0.9.
Answer with one of the outcomes Y for active, N for inactive

Example results:
molecule: O=C1CCCCCCCCCCCCCC1
assigned.class: Y
--
molecule: CCCc1c(OCCCCc2nn[nH]n2)ccc(C(C)=O)c1O
assigned.class: N
--
molecule: CCC(C)C1N=C(C)C(C)S1 (stereo unspecified)
assigned.class: N
--
molecule: CCOc1ccc2c(c1)C(C)CC(C)(C)N2 (stereo unspecified)
assigned.class: N
--
molecule: CCOC(=O)CC(=O)OCC
assigned.class: N

Input line: Can you look up the reported call for NCc1ccccc1 for me?
Output line: N

Input line: Can you look up the reported call for CCCCCCC1CCCC(=O)O1 (stereo unspecified) for me?
Output line: N

Input line: Can you look up the reported call for COC(OC)C(C)c1ccccc1 (stereo unspecified) for me?
Output line: N

###

experiment: ATG_Sox_CIS: Attagene CIS-FACTORIAL HepG2 Assay for human SRY-box transcription factor (SOX) (AID 2282960); conditions: HepG2 Attagene cis-factorial SOX reporter, mRNA; actives raise or lower the signal
Activity calls are given as the source filed them. Rule for the calls: active = hit-call score of the fitted dose curve at least 0.9, where 1 is the maximum; inactive = score below 0.9.
Answer with one of the outcomes active, inactive

smiles.structure: Nc1nnc(-c2ccc([N+](=O)[O-])o2)o1
assigned.class: inactive
--
smiles.structure: Cc1cc(C)c(S(=O)(=O)O)cc1N=Nc1cc(S(=O)(=O)O)c2ccccc2c1O
assigned.class: inactive

Input line: Can you look up the reported call for COC(=O)c1ccccc1 for me?
Output line: inactive

Input line: Can you look up the reported call for Cc1ccccc1S(=O)(=O)O for me?
Output line: active

###

target: Cellular tumor antigen p53 (Homo sapiens); test: TOX21_p53_BLA_p4_ratio: Tox21 HCT-116 p53 Agonism Beta-lactamase Assay, Ratio, Phase 4 (AID 2283601)
Inconclusive results are not listed. The source made the active and inactive calls. How the source made its calls: active means hit-call score of the fitted dose curve at least 0.9, where 1 is the maximum; inconclusive means response in the unintended direction; inactive means score below 0.9.
Answer with one of the outcomes active, inactive

Example results:
compound: CCOC(=O)COc1ccc2c(C)c(CCN(CC)CC)c(=O)oc2c1Cl
assigned.class: inactive

compound: CCOc1cc(OCC)c(C(=O)CCC(=O)O)cc1OCC
assigned.class: inactive

compound: O=[N+]([O-])c1c(Cl)cccc1-c1c[nH]cc1Cl
assigned.class: inactive

compound: CCCCCN(CCCCC)C(=O)C(CCC(=O)O)NC(=O)c1ccc(Cl)c(Cl)c1 (stereo not given)
assigned.class: inactive

For the next question, use this compound.
Input line: Can you look up the reported call for O=[N+]([O-])c1cccc(I)c1 for me?
Output line: inactive

###

assay: TOX21_p53_BLA_p4_viability: Viability Assessment in the Tox21 HCT-116 p53 Agonism Beta-lactamase Assay, Phase 4 (AID 2283597);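 further: hits lower the luminescence signal meaning cytotoxicity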
Results filed as inconclusive are left out. Calls of active or inactive are those of the source. Rule for the calls: active = hit-call score of the fitted dose curve at least 0.9, where 1 is the maximum; inconclusive = response in the unintended direction; inactive = score below 0.9.
Answer with one of the outcomes YES for active, NO for inactive

compound: NCCCC[C@H](NC(=O)[C@@H]1CCCN1C(=O)[C@@H]1CSSC[C@H](N)C(=O)N[C@@H](Cc2ccccc2)C(=O)N[C@@H](Cc2ccccc2)C(=O)N[C@@H](CCC(N)=O)C(=O)N[C@@H](CC(N)=O)C(=O)N1)C(=O)NCC(N)=O
assigned.class: NO
--
compound: COCCOC(=O)C1=C(C)NC(C)=C(C(=O)OC(C)C)C1c1cccc([N+](=O)[O-])c1 (centres undefined)
assigned.class: NO
--
compound: C=CCOc1c(Br)cc(C(C)(C)c2cc(Br)c(OCC=C)c(Br)c2)cc1Br
assigned.class: NO

For the next question, use this compound.
Input line: Can you look up the reported call for CCN(CC)CCOc1ccc(-c2nc3cc(Cl)ccc3s2)cc1 for me?
Output line: YES

###

read-out: Monokine induced gamma interferon (MIG), CXCL9 (gene 4283); assay: BSK_BE3C_MIG: BioMAP Diversity Plus: BE3C Assay for Monokine induced gamma interferon (MIG) Biomarker Activity (AID 2283035); conditions: primary human bronchial epithelial cells; actives raise or lower the signal;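 further: MIG protein measured by ELISA in BE3C cultures after 24 h of dosing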
Activity calls are given as the source filed them. How the source made its calls: active means hit-call score of the fitted dose curve at least 0.9, where 1 is the maximum; inactive means score below 0.9.
Answer with one of the outcomes active, inactive

Example results:
molecule: Cc1cc(-n2nc3ccc(Cl)cc3n2)c(O)c(C(C)(C)C)c1
assigned.class: inactive
//
molecule: CCCCCCCCCCC1CO1 (centres undefined)
assigned.class: inactive

Input line: Can you look up the reported call for CCC[Si](OC(C)=O)(OC(C)=O)OC(C)=O for me?
Output line: inactive

Input line: Can you look up the reported call for CC[N+](CC)(CC(=O)Nc1c(C)cccc1C)Cc1ccccc1 for me?
Output line: inactive

Input line: Can you look up the reported call for CN(C)Cc1cc(C(C)(C)C)c(O)c(C(C)(C)C)c1 for me?
Output line: inactive

Input line: Can you look up the reported call for CCCCCCC(O)CCCCCCCCCCC(=O)OC (centres undefined) for me?
Output line: inactive

Input line: Can you look up the reported call for CCCCC(CC)COC(=O)C=Cc1ccc(OC)cc1 (centres undefined) for me?
Output line: inactive

Input line: Can you look up the reported call for Cc1c(C(N)=O)cc([N+](=O)[O-])cc1[N+](=O)[O-] for me?
Output line: inactive

Input line: Can you look up the reported call for Cc1cccnc1 for me?
Output line: inactive

###

experiment: BSK_MyoF_SRB: Viability Assessment in the BioMAP Diversity Plus: MyoF Assay (AID 2284267); conditions: primary human lung fibroblasts;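 further: total protein by SRB absorbance in parallel cultures as cytotoxicity measure; cells assessed 24 h after compound addition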
Active and inactive are the calls of the source. How the source made its calls: active means hit-call score of the fitted dose curve at least 0.9, where 1 is the maximum; inactive means score below 0.9.
Answer with one of the outcomes YES for active, NO for inactive

Example results:
molecule: O=C(C(=O)c1ccccc1)c1ccccc1
assigned.class: NO

molecule: CC[N+](CC)(CC(=O)Nc1c(C)cccc1C)Cc1ccccc1
assigned.class: NO

molecule: CN(C)c1ccc(C(c2ccccc2)c2ccc(N(C)C)cc2)cc1
assigned.class: NO

molecule: Cc1cccnc1
assigned.class: NO

molecule: CCCCCCCCCCC1CO1 (stereo unspecified)
assigned.class: YES

For the next question, use this molecule.
Input line: Can you look up the reported call for Oc1cccc2ccccc12 for me?
Output line: NO

###

molecular target: CCAAT/enhancer-binding protein beta (Homo sapiens); test: ATG_C_EBP_CIS: Attagene CIS-FACTORIAL HepG2 Assay for human CCAAT/Enhancer Binding Protein (C/EBP) beta (AID 2282927); conditions: HepG2 Attagene cis-factorial transcription factor reporter; actives raise or lower the signal
The source made the active and inactive calls. How the source made its calls: active means hit-call score of the fitted dose curve at least 0.9, where 1 is the maximum; inactive means score below 0.9.
test.readout: AC50

Solved cases (8 shown):
compound: CC(C)(Oc1ccc(Cl)cc1)C(=O)O
reading: inactive
//
compound: c1cc[c]([Bi]([c]2ccccc2)[c]2ccccc2)cc1
reading: inactive
//
compound: O=[N+]([O-])c1ccc2nc[nH]c2c1
reading: inactive
//
compound: Cc1cc(C)c(S(=O)(=O)O)cc1N=Nc1cc(S(=O)(=O)O)c2ccccc2c1O
reading: inactive
//
compound: Cc1cccnc1
reading: 100 µM (active)
//
compound: O=C(c1ccccc1)c1ccccc1O
reading: inactive
//
compound: C[C@H]1C[C@H]2[C@@H]3CCC4=CC(=O)C=C[C@]4(C)[C@@]3(F)[C@@H](O)C[C@]2(C)[C@@]1(O)C(=O)CO
reading: inactive
//
compound: NC(N)=Nc1nc(CSCCC(N)=NS(N)(=O)=O)cs1
reading: inactive

Return reported AC50 values for all items listed beneath this line.
1. CCCCCC1CCCC(=O)O1 (configuration not stated)
2. COc1c2occc2cc2ccc(=O)oc12

Output line:
inactive
63.8 µM (active)

Return reported AC50 values for all items listed beneath this line.
1. [O-][n+]1ccc(Cl)cc1
2. CC[N+](CC)(CC(=O)Nc1c(C)cccc1C)Cc1ccccc1 (tested in a mixture with another compound)

Output line:
1. inactive
2. inactive

###

assay: TOX21_p53_BLA_p5_viability: Viability Assessment in the Tox21 HCT-116 p53 Agonism Beta-lactamase Assay, Phase 5 (AID 2283600)
Records with an inconclusive call do not appear. Active and inactive are the calls of the source. How the source made its calls: active means hit-call score of the fitted dose curve at least 0.9, where 1 is the maximum; inconclusive means response in the unintended direction; inactive means score below 0.9.
Answer with one of the outcomes true (active), false (inactive)

Example results:
molecule: CCOc1cc([N+](=O)[O-])c(OCC)cc1N1CCOCC1
assigned.class: false
--
molecule: O[C@@H](CNC[C@H](O)[C@H]1CCc2cc(F)ccc2O1)[C@@H]1CCc2cc(F)ccc2O1
assigned.class: true
--
molecule: COc1c(C)c2c(c(O)c1C/C=C(\C)CCC(=O)O)C(=O)OC2
assigned.class: false
--
molecule: CC[C@@H](C(=O)O)[C@@H]1O[C@@H]([C@@H](C)[C@H](O)[C@H](C)C(=O)[C@H](CC)[C@H]2O[C@]3(C=C[C@@H](O)[C@]4(CC[C@@](C)([C@H]5CC[C@](O)(CC)[C@H](C)O5)O4)O3)[C@H](C)C[C@@H]2C)[C@@H](C)C[C@@H]1C
assigned.class: false
--
molecule: Cc1ccc(/C=N/n2c(-c3ccccc3)csc2=S)cc1
assigned.class: false
--
molecule: CNCCCCOc1ccccc1Cc1ccccc1
assigned.class: false

Input line: Can you look up the reported call for Clc1ccc2c(c1)CCc1cccnc1C2=C1CCNCC1 for me?
Output line: false

Input line: Can you look up the reported call for O=P(O)(O)OC(Cn1cncn1)(Cn1cncn1)c1ccc(F)cc1F for me?
Output line: false

Input line: Can you look up the reported call for CCCCCCCCCCCCCC[N+](C)(C)Cc1ccccc1 for me?
Output line: false
